# inhibition annotations
# System under test: Sphingosine kinase 2 (Homo sapiens)
# Sequence (whole entry): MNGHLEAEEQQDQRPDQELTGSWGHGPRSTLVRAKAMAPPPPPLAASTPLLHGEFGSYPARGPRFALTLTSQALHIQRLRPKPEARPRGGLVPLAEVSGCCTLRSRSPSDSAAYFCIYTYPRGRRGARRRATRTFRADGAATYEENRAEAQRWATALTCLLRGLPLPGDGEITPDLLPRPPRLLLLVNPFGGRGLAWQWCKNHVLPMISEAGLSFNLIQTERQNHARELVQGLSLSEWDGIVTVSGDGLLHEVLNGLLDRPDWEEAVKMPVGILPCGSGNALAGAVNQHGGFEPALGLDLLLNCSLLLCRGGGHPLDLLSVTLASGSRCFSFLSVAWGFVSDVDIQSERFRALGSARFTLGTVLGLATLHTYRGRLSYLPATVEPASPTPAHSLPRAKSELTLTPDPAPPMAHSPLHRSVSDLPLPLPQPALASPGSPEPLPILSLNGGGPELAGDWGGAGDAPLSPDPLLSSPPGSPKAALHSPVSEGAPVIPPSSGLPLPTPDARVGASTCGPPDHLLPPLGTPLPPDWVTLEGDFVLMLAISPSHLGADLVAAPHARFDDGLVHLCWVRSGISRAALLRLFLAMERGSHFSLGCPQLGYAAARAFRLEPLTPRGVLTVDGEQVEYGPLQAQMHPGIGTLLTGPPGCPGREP
# Condition summary: at 1 µM
# Description: GSK_PKIS: SPHK2 mean inhibition at 1 uM [Nanosyn]
Record the result as number plus unit.

compound=COc1cccc(-n2cnc3c(N/N=C/c4ccncc4)ncnc32)c1 system_under_test="Sphingosine kinase 2 (Homo sapiens)" observed_result=-0.25%

Ask | Form entry - test system: Sphingosine kinase 2 (Homo sapiens); read-out: inhibition; compound: COc1cc(Nc2ncc3c(C)nc(-c4cccc(C(F)(F)F)c4)n3n2)cc(OC)c1OC
Reply | -3.1%

Ask | Form entry - test system: Sphingosine kinase 2 (Homo sapiens); read-out: inhibition; compound: CCc1nccc2c1nc(-c1nonc1N)n2CC
Reply | 1.35%

Ask | Form entry - test system: Sphingosine kinase 2 (Homo sapiens); read-out: inhibition; compound: Fc1ccc(-c2ncn(C3CCNCC3)c2-c2ccnc(Oc3ccc4c(c3)OCO4)n2)cc1
Reply | 0%

Ask | Form entry - test system: Sphingosine kinase 2 (Homo sapiens); read-out: inhibition; compound: CN(C)CCCNc1nccc(-c2c(-c3ccc(F)cc3)nn3cc(C(F)(F)F)ccc23)n1
Reply | -0.25%

* * *

# System under test: Protein-tyrosine kinase 2-beta (Homo sapiens) (UniProt Q14289);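 note: reported as mean percent inhibition of PYK2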
# Sequence (Q14289 whole entry, looked up): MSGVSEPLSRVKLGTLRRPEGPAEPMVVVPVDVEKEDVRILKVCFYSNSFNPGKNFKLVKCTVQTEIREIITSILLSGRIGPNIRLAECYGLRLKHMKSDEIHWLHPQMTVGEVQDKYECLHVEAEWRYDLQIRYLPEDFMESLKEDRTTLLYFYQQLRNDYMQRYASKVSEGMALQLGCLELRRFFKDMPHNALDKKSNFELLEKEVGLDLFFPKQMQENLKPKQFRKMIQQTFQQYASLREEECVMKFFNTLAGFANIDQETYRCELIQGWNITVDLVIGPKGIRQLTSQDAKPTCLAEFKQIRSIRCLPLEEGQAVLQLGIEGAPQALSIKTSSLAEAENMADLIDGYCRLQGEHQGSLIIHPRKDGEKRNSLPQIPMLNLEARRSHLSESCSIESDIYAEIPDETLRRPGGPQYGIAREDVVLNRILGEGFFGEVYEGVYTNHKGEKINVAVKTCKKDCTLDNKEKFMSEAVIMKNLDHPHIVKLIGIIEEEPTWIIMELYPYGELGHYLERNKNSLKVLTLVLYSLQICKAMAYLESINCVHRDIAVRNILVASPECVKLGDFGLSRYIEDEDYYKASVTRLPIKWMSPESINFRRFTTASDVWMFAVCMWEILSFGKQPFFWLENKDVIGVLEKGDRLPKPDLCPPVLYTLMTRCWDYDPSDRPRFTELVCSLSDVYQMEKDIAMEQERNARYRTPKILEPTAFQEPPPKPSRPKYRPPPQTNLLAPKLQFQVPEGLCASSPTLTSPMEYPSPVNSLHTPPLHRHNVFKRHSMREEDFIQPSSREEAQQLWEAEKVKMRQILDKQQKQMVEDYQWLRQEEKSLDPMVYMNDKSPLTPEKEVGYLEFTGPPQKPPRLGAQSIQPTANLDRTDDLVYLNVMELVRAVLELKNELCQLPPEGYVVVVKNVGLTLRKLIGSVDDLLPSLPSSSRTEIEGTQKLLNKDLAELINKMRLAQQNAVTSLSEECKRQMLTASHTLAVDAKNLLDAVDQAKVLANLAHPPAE
# Condition summary: at 0.1 µM
# inhibition annotations
Just the number in %, nothing appended.

Solved cases (6 shown):
compound=c1ccc(-c2n[nH]cc2-c2ccnc(-c3ccc(OCCN4CCOCC4)cc3)c2)nc1 system_under_test="Protein-tyrosine kinase 2-beta (Homo sapiens) (UniProt Q14289)" observed_result=-9.86
compound=NS(=O)(=O)c1ccc(N/N=C2\C(=O)Nc3ccc(-c4cnco4)cc32)cc1 system_under_test="Protein-tyrosine kinase 2-beta (Homo sapiens) (UniProt Q14289)" observed_result=9.59
compound=O=C1Nc2ccc(I)cc2C1=Cc1cc(Br)c(O)c(Br)c1 system_under_test="Protein-tyrosine kinase 2-beta (Homo sapiens) (UniProt Q14289)" observed_result=5.41
compound=COc1ccc2ncn(-c3cc(O[C@H](C)c4ccccc4Cl)c(C(N)=O)s3)c2c1 system_under_test="Protein-tyrosine kinase 2-beta (Homo sapiens) (UniProt Q14289)" observed_result=6.17
compound=CNC(=O)c1cncc(/C=C/c2c(C)cccc2C)c1 system_under_test="Protein-tyrosine kinase 2-beta (Homo sapiens) (UniProt Q14289)" observed_result=-2.5
compound=Cc1ccc(NC(=O)c2ccoc2)cc1-c1ccc(C(=O)NCC2CC2)cc1 system_under_test="Protein-tyrosine kinase 2-beta (Homo sapiens) (UniProt Q14289)" observed_result=0.3

Ask | Quick one: inhibition for Cc1ccc(C(=O)NC(C)C)cc1-c1ccc(C(=O)NCC2CC2)cc1 ?
Reply | -7.76

Ask | Quick one: inhibition for N#Cc1ccc(Oc2nccc(-c3c(-c4ccc(F)cc4)ncn3C3CCNCC3)n2)cc1 ?
Reply | 6.64
